# MEASURED ON: T1, NPR-B (natriuretic peptide receptor B), murine, expressed endogenously on NIH3T3 cells (murine, UniProt Q6VVW5 17-1047)
# T1 sequence (looked up): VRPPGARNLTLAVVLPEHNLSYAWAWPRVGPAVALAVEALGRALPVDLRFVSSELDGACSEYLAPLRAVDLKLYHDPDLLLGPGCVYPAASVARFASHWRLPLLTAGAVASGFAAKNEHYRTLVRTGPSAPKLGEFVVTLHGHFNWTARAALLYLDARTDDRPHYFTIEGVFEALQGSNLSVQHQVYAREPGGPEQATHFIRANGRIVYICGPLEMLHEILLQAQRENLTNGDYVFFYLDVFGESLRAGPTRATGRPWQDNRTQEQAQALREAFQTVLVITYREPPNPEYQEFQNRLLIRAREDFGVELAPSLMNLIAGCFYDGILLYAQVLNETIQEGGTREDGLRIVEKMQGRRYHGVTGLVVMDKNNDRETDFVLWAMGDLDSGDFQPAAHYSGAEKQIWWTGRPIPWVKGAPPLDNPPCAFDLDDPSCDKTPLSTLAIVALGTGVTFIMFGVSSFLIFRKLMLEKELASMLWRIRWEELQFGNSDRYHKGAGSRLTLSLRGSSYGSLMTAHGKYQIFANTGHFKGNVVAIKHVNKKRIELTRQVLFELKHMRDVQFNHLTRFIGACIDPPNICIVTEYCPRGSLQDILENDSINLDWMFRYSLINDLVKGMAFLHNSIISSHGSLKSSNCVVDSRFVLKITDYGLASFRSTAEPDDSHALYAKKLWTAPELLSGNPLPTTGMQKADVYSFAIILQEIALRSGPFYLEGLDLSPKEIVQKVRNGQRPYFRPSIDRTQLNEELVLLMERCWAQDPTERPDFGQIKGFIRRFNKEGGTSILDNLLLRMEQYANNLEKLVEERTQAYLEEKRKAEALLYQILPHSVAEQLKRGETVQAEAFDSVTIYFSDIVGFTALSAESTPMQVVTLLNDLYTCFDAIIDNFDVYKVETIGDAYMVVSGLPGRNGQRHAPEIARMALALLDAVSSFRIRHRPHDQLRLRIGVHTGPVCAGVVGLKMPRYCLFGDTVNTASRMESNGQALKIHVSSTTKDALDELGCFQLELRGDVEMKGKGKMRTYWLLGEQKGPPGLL
# ASSAY EXPLANATION: cell-based or functional assay
Where no end group is shown, it is not given here. [ ]: non-standard residue; d: D form. Cit = NC(=O)NCCC[C@H](N)C(=O)O
In this section, each of the binders is paired with its reported cGMP response rel. to 1 uM CNP22; 1 uM peptide, NIH3T3 cells.

Observe how each entry below is paired with its result.
GLSRGCFGLKLDRIGSMSGRGC [CNP22, K4R, L20R]; 8 rel. to 1 uM CNP22 (100)
GLSRGCFGLQLDRIGSMSGLGC [CNP22, K4R, K10Q]; 45 rel. to 1 uM CNP22 (100)
GLSRGCFGLKLDRIGSMSGLRC [CNP22, K4R, G21R]; 21 rel. to 1 uM CNP22 (100)

Inquiry: Any idea what cGMP response rel. to 1 uM CNP22; 1 uM peptide, NIH3T3 cells was measured for GLSRGCFGLKLDRI[Cit]SMSGLGC (ends and bridges not checked) [CNP22, K4R, G15Cit] ?
Reply text: 2 rel. to 1 uM CNP22 (100)

Inquiry: // returns reported cGMP response rel. to 1 uM CNP22; 1 uM peptide, NIH3T3 cells for input GLSRGCFGLKLDRIGSNSGLGC [CNP22, K4R, M17N]
Reply text: 103 rel. to 1 uM CNP22 (100)

Inquiry: Requested read-out: cGMP response rel. to 1 uM CNP22; 1 uM peptide, NIH3T3 cells. Entry: GLSRGCFGLKLDRIRSMSGLGC [CNP22, K4R, G15R]
Reply text: 0.3 rel. to 1 uM CNP22 (100)

Inquiry: Recorded cGMP response rel. to 1 uM CNP22; 1 uM peptide, NIH3T3 cells for GLSRGCFGLRLDRIGSMSGLGC [CNP22, K4R, K10R] , please?
Reply text: 80 rel. to 1 uM CNP22 (100)

Inquiry: Which cGMP response rel. to 1 uM CNP22; 1 uM peptide, NIH3T3 cells value is on record for GLSRGCFGTKLDRIGSMSGLGC [CNP22, K4R, L9T] ?
Reply text: 68 rel. to 1 uM CNP22 (100)

Inquiry: Fill in: cGMP response rel. to 1 uM CNP22; 1 uM peptide, NIH3T3 cells of GLSRGCFTLKLDRIGSMSGLGC [CNP22, K4R, G8T] is ___
Reply text: 66 rel. to 1 uM CNP22 (100)
